# IC50, RGA 1 values compiled below
- target_system: T1, human IL-11 (human, UniProt P20809 22-199)
- T1 sequence: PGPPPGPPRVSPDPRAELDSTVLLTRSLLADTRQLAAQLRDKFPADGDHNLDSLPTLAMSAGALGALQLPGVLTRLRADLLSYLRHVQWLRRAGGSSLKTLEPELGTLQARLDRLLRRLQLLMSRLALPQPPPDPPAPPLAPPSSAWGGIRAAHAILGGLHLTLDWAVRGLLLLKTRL
- assay_protocol: cell-based or functional assay
Could you give me the number in nM? Just the number is fine.

// solved cases for IC50, RGA 1 follow
- binder: "TPP-31297 (antibody, IgG4, V domains shown) VH: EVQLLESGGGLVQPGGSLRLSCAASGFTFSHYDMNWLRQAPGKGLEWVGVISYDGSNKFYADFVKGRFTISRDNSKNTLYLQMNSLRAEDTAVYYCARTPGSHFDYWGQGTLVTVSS VL: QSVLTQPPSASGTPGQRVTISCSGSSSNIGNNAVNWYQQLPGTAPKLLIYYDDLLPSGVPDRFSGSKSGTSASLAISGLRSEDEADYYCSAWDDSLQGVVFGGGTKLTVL"
  endpoint_value: 181
- binder: "TPP-31287 (antibody, IgG4, V domains shown) VH: EVQLVESGGGLVQPGGSLRLSCAASGFTFSHYDMNWLRQAPGKGLEWVGVISYDGSNKFYADFVKGRFTISRDNSKNTLYLQMNSLRAEDTAVYYCARTPGSHFDYWGQGTLVTVSS VL: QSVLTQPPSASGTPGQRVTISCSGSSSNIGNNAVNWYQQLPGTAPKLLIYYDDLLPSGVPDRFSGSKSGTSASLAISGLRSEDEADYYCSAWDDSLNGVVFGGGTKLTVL"
  endpoint_value: 127
- binder: "TPP-31292 (antibody, IgG4, V domains shown, hIgG4 SPLE, lambda) VH: EVQLLESGGGLVQPGGSLRLSCAASGFTFSHYDMHWLRQAPGKGLEWVGVISYDGSNKFYADFVKGRFTISRDNSKNTLYLQMNSLRAEDTAVYYCARTPGSHFDYWGQGTLVTVSS VL: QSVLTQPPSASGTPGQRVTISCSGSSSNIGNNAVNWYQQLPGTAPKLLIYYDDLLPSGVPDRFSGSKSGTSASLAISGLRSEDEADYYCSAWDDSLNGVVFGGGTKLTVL"
  endpoint_value: 234

Query :: So what does the record say about IC50, RGA 1 for TPP-31285 (antibody, IgG4, V domains shown, hIgG4 SPLE, lambda) VH: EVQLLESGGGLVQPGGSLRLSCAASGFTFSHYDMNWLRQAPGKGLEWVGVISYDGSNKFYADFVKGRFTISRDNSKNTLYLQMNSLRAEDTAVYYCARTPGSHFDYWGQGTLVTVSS VL: QSVLTQPPSASGTPGQRVTISCSGSSSNIGNNAVNWYQQLPGTAPKLLIYYDDLLPSGVPDRFSGSKSGTSASLAISGLRSEDEADYYCAAWDDSLNGVVFGGGTKLTVL ?
Result :: 50

Query :: Can you look up the measured IC50, RGA 1 of TPP-31309 (antibody, IgG4, V domains shown) VH: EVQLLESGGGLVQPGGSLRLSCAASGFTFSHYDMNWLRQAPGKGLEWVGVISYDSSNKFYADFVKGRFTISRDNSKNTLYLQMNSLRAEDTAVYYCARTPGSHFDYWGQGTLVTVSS VL: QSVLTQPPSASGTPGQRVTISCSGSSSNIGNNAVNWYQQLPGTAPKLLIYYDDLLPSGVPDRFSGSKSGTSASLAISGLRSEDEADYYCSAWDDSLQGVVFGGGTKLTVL for me?
Result :: 261
